Values compiled from patent US20250144094A1.

- Assayed system: Recombinant human ULK1 (1-649) (Homo sapiens (Human))
- Sequence (O75385 1-649): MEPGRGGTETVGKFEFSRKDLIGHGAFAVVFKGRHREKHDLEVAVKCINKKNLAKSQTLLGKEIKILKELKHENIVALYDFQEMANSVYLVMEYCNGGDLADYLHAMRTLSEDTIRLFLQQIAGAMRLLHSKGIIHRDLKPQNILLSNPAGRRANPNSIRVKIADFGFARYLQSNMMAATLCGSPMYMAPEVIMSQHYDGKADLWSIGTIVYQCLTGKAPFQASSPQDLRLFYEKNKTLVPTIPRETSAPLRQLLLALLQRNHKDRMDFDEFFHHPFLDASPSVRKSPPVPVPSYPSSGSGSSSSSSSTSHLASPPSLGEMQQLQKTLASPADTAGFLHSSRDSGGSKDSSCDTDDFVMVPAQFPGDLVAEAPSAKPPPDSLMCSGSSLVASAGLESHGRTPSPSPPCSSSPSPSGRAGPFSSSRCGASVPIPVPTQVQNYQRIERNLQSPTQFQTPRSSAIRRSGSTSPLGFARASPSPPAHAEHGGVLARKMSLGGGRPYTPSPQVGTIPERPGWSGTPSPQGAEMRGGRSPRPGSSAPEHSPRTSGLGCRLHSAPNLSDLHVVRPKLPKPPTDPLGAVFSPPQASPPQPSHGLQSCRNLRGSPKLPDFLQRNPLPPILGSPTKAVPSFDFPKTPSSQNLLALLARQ
- Protocol summary: ULK1 ADP Glo kinase activity assay (MBP substrate)
- Measurement setup: 25° C., 40 minutes, read-out: ULK1 biochemical IC50
pIC50: −log10 of the molar value.
Reported property: pIC50

>>> df
                                 smiles_code  observed_result
 0  CS(=O)(=O)c1cc(-c2nc(Nc3cc4c(cc3Cl)CNCC4)ncc2C(F)(F)F)sc1N1CCOCC1           ≥ 8.00
 1  Cn1ccc2sc(-c3nc(Nc4cc5c(cc4Cl)CNCC5)ncc3C(F)(F)F)cc2c1=O           ≥ 8.00
 2  CS(=O)(=O)c1csc(-c2nc(Nc3cc(C4CNC4)ccc3Cl)ncc2C(F)(F)F)c1     7.00 to 7.30
 3  N#Cc1csc(-c2nc(Nc3cc4c(cc3Cl)CNCC4)ncc2C(F)(F)F)c1     7.30 to 8.00
 4  CN1CC(N2CCc3cc(Nc4ncc(C(F)(F)F)c(-c5cc(C(N)=O)cs5)n4)c(Cl)cc3C2)C1     7.30 to 8.00
 5  CCc1cc2c(cc1Nc1ncc(C(F)(F)F)c(-c3cc(S(C)(=O)=O)cs3)n1)CN(C)C2     7.30 to 8.00
 6  Cc1nn(C2CCN(C)CC2)cc1Nc1ncc(C(F)(F)F)c(-c2cc(S(C)(=O)=O)cs2)n1           ≥ 8.00
 7  CS(=O)(=O)Nc1csc(-c2nc(Nc3cc4c(cc3Cl)CNCC4)ncc2C(F)(F)F)c1           ≥ 8.00
 8  O=C1NCCNc2sc(-c3nc(Nc4cc5c(cc4Cl)CNCC5)ncc3C(F)(F)F)cc21           ≥ 8.00
 9  CS(=O)(=O)c1csc(-c2nc(Nc3cc4c(cc3F)CNCC4)ncc2C(F)(F)F)c1           ≥ 8.00
10  CN1CCc2cc(Nc3ncc(C(F)(F)F)c(-c4cc(S(C)(=O)=O)c(C(N)=O)s4)n3)c(Cl)cc2C1           ≥ 8.00
11  CN1CCc2cc(Nc3ncc(C(F)(F)F)c(-c4cc(S(C)(=O)=O)c(C(=O)N5CCOCC5)s4)n3)c(Cl)cc2C1     6.30 to 7.00
12  CS(=O)(=O)N1CCc2sc(-c3nc(Nc4cc5c(cc4Cl)CNCC5)ncc3C(F)(F)F)cc2C1=O           ≥ 8.00
13  CCc1cc2c(cc1Nc1ncc(C(F)(F)F)c(-c3cc(S(C)(=O)=O)cs3)n1)CNC2           ≥ 8.00
14  CN1CCc2cc(F)c(Nc3ncc(C(F)(F)F)c(-c4cc(S(C)(=O)=O)cs4)n3)cc2C1           ≥ 8.00
15  O=S1(=O)CCCOc2sc(-c3nc(Nc4cc5c(cc4Cl)CNCC5)ncc3C(F)(F)F)cc21           ≥ 8.00
16  CS(=O)(=O)c1csc(-c2nc(Nc3cc4c(cc3Cl)CNCC4)ncc2Cl)c1           ≥ 8.00
17  CN1CCc2cc(Nc3ncc(C(F)(F)F)c(-c4cc5c(s4)CNCCS5(=O)=O)n3)c(Cl)cc2C1           ≥ 8.00
18  CN1CCc2ccc(Nc3ncc(C(F)(F)F)c(-c4cc(S(C)(=O)=O)cs4)n3)cc2C1           ≥ 8.00
19  CN1CCc2cc(Nc3ncc(C(F)(F)F)c(-c4cc(S(C)(=O)=O)cs4)n3)c(F)cc2C1           ≥ 8.00
20  CN1CC(c2ccc(Cl)c(Nc3ncc(C(F)(F)F)c(-c4cc(S(C)(=O)=O)cs4)n3)c2)C1     6.30 to 7.00
21  O=c1[nH]ncc2sc(-c3nc(Nc4cc5c(cc4Cl)CNCC5)ncc3C(F)(F)F)cc12     7.30 to 8.00
